tested on: HT29 colon; test: NCI tumour cell line growth inhibition, 48 h
Measurement Name: TGI

[[record]]
compound = "c1ccc(CCN2CCCCCC2)nc1"
measurement_name = "TGI"
reading = "> 100 µM"

[[record]]
compound = "S=c1nc(-c2nc(=S)[nH]c3c2CCCCCCCCCC3)c2c([nH]1)CCCCCCCCCC2"
measurement_name = "TGI"
reading = "> 100 µM"

[[record]]
compound = "Cn1c2c([N+](=O)[O-])[se]nc2c(=O)n1-c1ccc([N+](=O)[O-])cc1"
measurement_name = "TGI"
reading = "8.12 µM"

[[record]]
compound = "CNC(=O)CCC(NC(C)=O)C(=O)NC(Cc1ccc(NC(=O)CCCCC(C)=O)cc1)C(=O)NC(CCC(=O)NC)C(=O)NC (stereo not given)"
measurement_name = "TGI"
reading = "> 100 µM"

[[record]]
compound = "O=C(N/N=C\\c1cccc2ccccc12)Nc1ccc([N+](=O)[O-])cc1"
measurement_name = "TGI"
reading = "> 100 µM"

